- Test system: PC-3 prostate
- ASSAY_DETAILS: NCI-60 one-dose screen, 48 h
- STATED_CONDITIONS: 10 µM unless noted
This is part of a sample that, as a whole, favours compounds with a hit. Of some 83,000 tested, about 20% had one in any assay. Active and inactive are the calls of the source. Rule for the calls: active = growth percent below 10; inactive = the rest.
Outcome field: choose from active, inactive

Example entries begin here.
compound=c1ccc2cc(Cn3c[n+](Cc4ccc5ccccc5c4)c4ccccc43)ccc2c1 target_or_system="PC-3 prostate" assigned_class=active
compound=C=C(c1ccc(C(=O)O)cn1)c1cc2c(cc1C)C(C)(C)CCC2(C)C target_or_system="PC-3 prostate" assigned_class=inactive
compound="CCN1C(=O)N(CC)C2C1NN=c1s/c(=C\\c3ccccc3Br)c(=O)n12 (stereo not drawn)" target_or_system="PC-3 prostate" assigned_class=inactive
compound=N#C/C(=C\c1ccc(-c2ccc(Cl)cc2)o1)c1ccc(Cl)cc1 target_or_system="PC-3 prostate" assigned_class=inactive
compound=Cc1ncc(C(=O)Nc2ccc(CN3CCN(C)CC3)c(C(F)(F)F)c2)cc1C#Cc1cnc(N)c2ccncc12 target_or_system="PC-3 prostate" assigned_class=active

query: What call does the record list for CN1C(=O)N(C)C2C1NC(=S)N2/N=C/C=C/c1ccccc1[N+](=O)[O-] (stereo not drawn) ?
result: inactive

query: Same read-out for COc1cc(-c2nc(SCCC(C)C)nc(N3CCOCC3)c2C#N)cc(OC)c1OC ?
result: inactive

query: Also CCOC(=O)C/C(=N\Nc1cc(=O)[nH]c2ccc(Cl)cc12)C(=O)OCC ?
result: inactive

query: Also N#Cc1c(Nc2ccc(F)cc2)n[nH]c1-c1cccs1 ?
result: inactive

query: Consider next the compound CC[C@H](Nc1nc(N)nc(C)c1C#N)c1nc2cccc(NCCCCCC(=O)NO)c2c(=O)n1-c1ccccc1 in the same way.
result: inactive
